Target: Recombinant MDH (Apium graveolens)
Construct: An MDH gene was synthetically constructed for expression E. coli; made in house; host or cells: E. coli BL21, pTTQ18 plasmid
Sequence (Q38707 whole entry C47S/T120I): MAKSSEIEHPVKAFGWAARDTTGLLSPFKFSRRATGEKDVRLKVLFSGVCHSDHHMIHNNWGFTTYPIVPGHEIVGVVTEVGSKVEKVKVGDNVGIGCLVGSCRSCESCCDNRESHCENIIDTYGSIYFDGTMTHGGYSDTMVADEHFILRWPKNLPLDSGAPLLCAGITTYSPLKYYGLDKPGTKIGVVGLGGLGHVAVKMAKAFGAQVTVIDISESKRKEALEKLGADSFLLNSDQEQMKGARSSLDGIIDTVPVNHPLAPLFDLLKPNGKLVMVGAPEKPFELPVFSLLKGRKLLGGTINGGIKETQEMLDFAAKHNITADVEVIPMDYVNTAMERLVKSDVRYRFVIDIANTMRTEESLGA
Assay: Relative reaction rates of substrates with recombinantly expressed MDH (NADH measured spectrophotometrically)
Type: biochemical
Settings: MDH expressed recombinantly; D-mannitol = 100%
Reported Relative reaction rates, Recombinant MDH by item:
A bare number is not enough; add the unit after it.

Ask | Report Relative reaction rates, Recombinant MDH, nothing else, for this molecule: OC[C@@H](O)[C@@H](O)[C@H](O)[C@@H](O)CO
Reply | 5%

Ask | Report Relative reaction rates, Recombinant MDH, nothing else, for this molecule: OC[C@@H](O)[C@@H](O)[C@H](O)[C@H](O)CO
Reply | 100%

Ask | Report Relative reaction rates, Recombinant MDH, nothing else, for this molecule: OC[C@@H](O)[C@H](O)[C@@H](O)CO
Reply | 1%

Ask | Report Relative reaction rates, Recombinant MDH, nothing else, for this molecule: OC[C@@H](O)[C@@H](O)[C@@H](O)CO
Reply | 50%

Ask | Report Relative reaction rates, Recombinant MDH, nothing else, for this molecule: OC[C@@H](O)C(O)[C@H](O)CO
Reply | 33%

Ask | Report Relative reaction rates, Recombinant MDH, nothing else, for this molecule: OC[C@@H](O)[C@@H](O)CO
Reply | 4%
